Assay: physchem
Description: Acid dissociation constant, pKa of the compound
readout-label: pKa

Query: Fill blank: measured pKa of the compound O=c1n(CCCN2CCN(c3cccc(Cl)c3)CC2)nc2ccccn12 [TRAZODONE] is ____.
Result: 6.73

Query: Fill blank: measured pKa of the compound Fc1ccc([C@@H]2CCNC[C@H]2COc2ccc3c(c2)OCO3)cc1 [PAROXETINE] is ____.
Result: 10.1

Query: Fill blank: measured pKa of the compound CN(C)CCC=C1c2ccccc2C=Cc2ccccc21 [CYCLOBENZAPRINE] is ____.
Result: 9.69

Query: Fill blank: measured pKa of the compound COCCCC/C(=N\OCCN)c1ccc(C(F)(F)F)cc1 [FLUVOXAMINE] is ____.
Result: 9.4

Query: Fill blank: measured pKa of the compound COc1ccc2c3c1O[C@H]1C(=O)CC[C@H]4[C@@H](C2)N(C)CC[C@]314 [HYDROCODONE] is ____.
Result: 8.43

---

Experiment: physchem
Conditions: buffer, pH 7.4
Criterion: logD meeting or surpassing 2. Met: TRUE. Not met: FALSE.

Cc1ncc2n1-c1ccc(Cl)cc1C(c1ccccc1F)=NC2 : TRUE
Cc1nc2n(c(=O)c1CCN1CCC(c3noc4cc(F)ccc34)CC1)CCCC2 : FALSE
O=c1n(CCCN2CCN(c3cccc(Cl)c3)CC2)nc2ccccn12 : TRUE
COc1ccc(C(CN(C)C)C2(O)CCCCC2)cc1 (stereo not given) : FALSE
CNCCC=C1c2ccccc2CCc2ccccc21 : TRUE
COc1ccc2c3c1O[C@H]1C(=O)CC[C@H]4[C@@H](C2)N(C)CC[C@]314 [HYDROCODONE] : TRUE
CN(C)CCCN1c2ccccc2Sc2ccc(Cl)cc21 : TRUE
O=C(CCCN1CCC(O)(c2ccc(Cl)cc2)CC1)c1ccc(F)cc1 : FALSE
Cc1ccc(-c2nc3ccc(C)cn3c2CC(=O)N(C)C)cc1 : TRUE
NC(=O)N1c2ccccc2C=Cc2ccccc21 [CARBAMAZEPINE] : FALSE

Query: Item `CN(C)CCC=C1c2ccccc2C=Cc2ccccc21` with logD of 2 or above?
Result: TRUE

Query: Item CCCC(C)(COC(N)=O)COC(=O)NC(C)C (stereo not given) with logD of 2 or above?
Result: TRUE

Query: Item COC(=O)[C@H](c1ccccc1)C1CCCCN1 (stereo not given in full) [METHYLPHENIDATE] with logD of 2 or above?
Result: FALSE

Query: Item `Fc1ccc([C@@H]2CCNC[C@H]2COc2ccc3c(c2)OCO3)cc1` with logD of 2 or above?
Result: TRUE

Query: Item `CN1CCN(C2=Nc3cc(Cl)ccc3Nc3ccccc32)CC1` with logD of 2 or above?
Result: TRUE

---

Assay: Fraction unbound ligand in rat brain after 20 hrs
Format: ADME, tissue-based
Settings: brain tissue
readout-label: fraction unbound at 20 h
API doc: respond with a numeric literal and nothing else, no unit.

Query: Fill blank: measured fraction unbound at 20 h of the compound CC(C)NCC(O)COc1cccc2ccccc12 (stereo unspecified) is ____.
Result: 0.021

---

Test: Fraction unbound ligand in rat brown fat tissue after 20 hrs
Type: ADME, tissue-based, Adipose tissue
readout-label: fraction unbound at 20 h

Query: Fill blank: measured fraction unbound at 20 h of the compound CC(C)NCC(O)COc1cccc2ccccc12 (stereo unspecified) is ____.
Result: 0.097

---

Assay: Fraction unbound ligand in rat lung after 20 hrs
Type: ADME, tissue-based
Settings: lung tissue
readout-label: fraction unbound at 20 h
API doc: respond with a numeric literal and nothing else, no unit.

Query: Fill blank: measured fraction unbound at 20 h of the molecule CC(C)NCC(O)COc1cccc2ccccc12 (stereo unspecified) is ____.
Result: 0.053

---

Experiment: physchem
readout-label: pKa
API doc: respond with a numeric literal and nothing else, no unit.

Check out these entries, answers already filled in.
CNCCC=C1c2ccccc2CCc2ccccc21 [NORTRIPTYLINE] : 10.4
COC(=O)[C@H](c1ccccc1)C1CCCCN1 (stereo partly specified) [METHYLPHENIDATE] : 9.24
Cc1ncc2n1-c1ccc(Cl)cc1C(c1ccccc1F)=NC2 [MIDAZOLAM] : 5.44
OCCOCCN1CCN(C(c2ccccc2)c2ccc(Cl)cc2)CC1 (stereo unspecified) [HYDROXYZINE] : 7.75
Cc1ccc(-c2nc3ccc(C)cn3c2CC(=O)N(C)C)cc1 [ZOLPIDEM] : 6.02

# input for lookup
Query: Fill blank: measured pKa of the compound O=C1CC2(CCCC2)CC(=O)N1CCCCN1CCN(c2ncccn2)CC1 [BUSPIRONE] is ____.
Result: 7.8
